Measurement target: human B7-H3 (4Ig) protein (his tag) (human) (UniProt Q5ZPR3)
Assay protocol: SPR (Biacore T200), antibody captured on Protein A chip, B7-H3 injected, 1:1 model
Response field label: string, one of Met (koff strictly below 0.0005 s⁻¹) or Not met.

{"Binder": "AHP05564 (antibody, V domains shown) VH: EVQLVETGGGVVQPGRSLRLSCAASGFTFSSSGMHWVRQAPGKGLEWVAVISYDVTNKYYVDSVKGRFTISRDNSENTLYLQMNSLRAEDTGVYYCVRDGGPRWLGWYFDLWGRGTLVTVSS VL: NIQMTQSPSSQSASVGDRVTITCRANQAIANSLAWYQQKPGKAPKLLLFGTSLLHSGVPSRFSGSGSGTEYTLTISSLQPDDFGTYYCQQYFSFPRTFGQGTQVDVY", "Group": "Not met"}

Ask | Could you please tell me whether koff recorded for 126C10B10 (antibody, V domains shown) VH: GVQLQQSGAELVKPGASVKLSCTGSGFNIKDPYIHWVKQRPEQGLEWIGRIDPANGNTKYGPRFQGRATMTADTSSNTANLQLSSLTSEDTAVYYCTTWNYYLSRGFDYWGQGTTLTVSS VL: QIVLTQSPAIMSASPGEKVTMTCSARSSVTYMHWYQQKSGTSPKRWIYDTSKLASGVPARFSGSGSGTSYSLTISSMEAEDAATYYCQQWTSNPLTFGAGTKLELK is less than 0.0005 s⁻¹?
Reply | Met

Ask | Could you please tell me whether koff recorded for AHP06358 (antibody, V domains shown) VH: EVQLVQSGAEVKKPGASVKVSCKASGYTFTSYGISWVRQAPGQGLEWMGWISAYNGNTNYAQKLQGRVTMTTDTSTSTAYMELRSLRSDDTAVYYCARDSPLQIAVAGYYYGMDVWGQGTTVTVSS VL: NFMLTQPHSVSESPGKTVTISCTRSSGSIVSGYVQWYQQRPGSAPSTVIYEHNQRPSGVPDRFSGSIDSSSNSASLTISGLRTEDEADYYCQSYDSRNMIFGGGTKLTVL is less than 0.0005 s⁻¹?
Reply | Not met

Ask | Could you please tell me whether koff recorded for 97E6B2 (antibody, V domains shown) VH: QVQLQQPGAELVKPGASVKMSCKASGYTFTSYWITWVKQRPGQGLEWIGDIYPGSNNTYYNEKFKSKATLTVDTSSSTAYIQLSSLTSEDSAVYYCARLIMSLFDYSGQGTTLTVSS VL: ENVLTQSPANMSASPGEKVTMTCSVSSSVSYIHWYQQKSSTSPTLWIYDTSKLASGVPGRFSGSGSGNSYALTISSMEAEDVATYYCFQGSAYPLTFGAGTKLELK is less than 0.0005 s⁻¹?
Reply | Met

Ask | Could you please tell me whether koff recorded for 216E7A9 (antibody, V domains shown) VH: DVQLVESGGGLVQPGGSRKLSCAASGFTFSSFGMHWVRQAPEKGLEWVAYISSGSSTIYYADTVRGRFTISRDNPKNTLFLQMTSLRSEDTAMYYCARGGDYYYALDYWGQGTSVTVSS VL: DIQMTQSPASLSVSVGETVTITCRASENIHSNLEWYQQKQGKSPQLLVYAATNLADGVPSRFSGSGSGTQYSLKINSLQSEDFGSYYCQHFWGTPFTFGSGTKLEIK is less than 0.0005 s⁻¹?
Reply | Not met

Ask | Could you please tell me whether koff recorded for 81C8A1 (antibody, V domains shown) VH: QVTLKESGPGILQPSQTLSLTCSFSGFSLSTSGMGVSWIRQPPGKGLEWLAHIYWDDDRRYNPSLKSRLTISRDTSRNQVFLQITTVDTADTATYYCARSPYGSEAYWGQGTLVIVSA VL: QIVLSQSPTILSAFPGEKVTMTCRASSSVSFIQWYQQKSGSSPKPWIYSPSNLASGVPTRFSGSGSGTSYSLTIGRVEAEDAATYYCQQWSSYPWTFGGGTKVEIK is less than 0.0005 s⁻¹?
Reply | Met

Ask | Could you please tell me whether koff recorded for MGA017 (antibody, from a related filing, V domains shown) VH: EVQLVESGGGLVKPGGSLRLSCAASGFTFSSYGMSWVRQAPGKGLEWVATINSGGSNTYYPDSLKGRFTISRDNAKNSLYLQMNSLRAEDTAVYYCARHDGGAMDYWGQGTTVTVSS VL: DIQMTQSPSSLSASVGDRVTITCRASESIYSYLAWYQQKPGKAPKLLVYNTKTLPEGVPSRFSGSGSGTDFTLTISSLQPEDFATYYCQHHYGTPPWTFGQGTRLEIK is less than 0.0005 s⁻¹?
Reply | Not met
